# System: F. graminearum (KCTC 16656)
# measurement.context: KCTC 16656, 48 h, pH 6
Residues, ends and D or L forms follow the SMILES beside them.
measurement.kind: log10 MIC (log10 of the value in µM)

compound	log10 MIC
NCCCC[C@H](NC(=O)[C@H](CCCCN)NC(=O)[C@H](Cc1c[nH]cn1)NC(=O)[C@H](CCCCN)NC(=O)[C@H](CCCCN)NC(=O)[C@H](Cc1c[nH]cn1)NC(=O)[C@H](CCCCN)NC(=O)[C@H](CCCCN)NC(=O)[C@H](Cc1c[nH]cn1)NC(=O)[C@H](CCCCN)NC(=O)[C@H](CCCCN)NC(=O)[C@@H](N)Cc1c[nH]cn1)C(N)=O [(HKK)4] (H-HKKHKKHKKHKK-NH2)	1.20
NCCCC[C@H](NC(=O)[C@H](CCCCN)NC(=O)[C@H](Cc1c[nH]cn1)NC(=O)[C@H](CCCCN)NC(=O)[C@H](CCCCN)NC(=O)[C@@H](N)Cc1c[nH]cn1)C(N)=O [(HKK)2] (H-HKKHKK-NH2)	1.81
NCCCC[C@H](NC(=O)[C@H](CCCCN)NC(=O)[C@H](Cc1c[nH]cn1)NC(=O)[C@H](CCCCN)NC(=O)[C@H](CCCCN)NC(=O)[C@H](Cc1c[nH]cn1)NC(=O)[C@H](CCCCN)NC(=O)[C@H](CCCCN)NC(=O)[C@@H](N)Cc1c[nH]cn1)C(N)=O [(HKK)3] (H-HKKHKKHKK-NH2)	1.51
NCCCC[C@H](NC(=O)[C@H](CCCCN)NC(=O)[C@@H](N)Cc1c[nH]cn1)C(N)=O [(HKK)1] (H-His-Lys-Lys-NH2)	2.71
NCCCC[C@H](NC(=O)[C@H](CCCCN)NC(=O)[C@H](Cc1c[nH]cn1)NC(=O)[C@H](CCCCN)NC(=O)[C@H](CCCCN)NC(=O)[C@H](Cc1c[nH]cn1)NC(=O)[C@H](CCCCN)NC(=O)[C@H](CCCCN)NC(=O)[C@H](Cc1c[nH]cn1)NC(=O)[C@H](CCCCN)NC(=O)[C@H](CCCCN)NC(=O)[C@H](Cc1c[nH]cn1)NC(=O)[C@H](CCCCN)NC(=O)[C@H](CCCCN)NC(=O)[C@H](Cc1c[nH]cn1)NC(=O)[C@H](CCCCN)NC(=O)[C@H](CCCCN)NC(=O)[C@@H](N)Cc1c[nH]cn1)C(N)=O [(HKK)6] (H-HKKHKKHKKHKKHKKHKK-NH2)	0.90
